Recorded values, source patent US8557796B2.

- Tested On: 5HT-uptake (Rattus norvegicus)
- Construct: synaptosomes from rat brain regions were freshly isolated; from tissue; host or cells: P2 synaptosome fraction from rat brain regions
- Sequence (P31652 whole entry): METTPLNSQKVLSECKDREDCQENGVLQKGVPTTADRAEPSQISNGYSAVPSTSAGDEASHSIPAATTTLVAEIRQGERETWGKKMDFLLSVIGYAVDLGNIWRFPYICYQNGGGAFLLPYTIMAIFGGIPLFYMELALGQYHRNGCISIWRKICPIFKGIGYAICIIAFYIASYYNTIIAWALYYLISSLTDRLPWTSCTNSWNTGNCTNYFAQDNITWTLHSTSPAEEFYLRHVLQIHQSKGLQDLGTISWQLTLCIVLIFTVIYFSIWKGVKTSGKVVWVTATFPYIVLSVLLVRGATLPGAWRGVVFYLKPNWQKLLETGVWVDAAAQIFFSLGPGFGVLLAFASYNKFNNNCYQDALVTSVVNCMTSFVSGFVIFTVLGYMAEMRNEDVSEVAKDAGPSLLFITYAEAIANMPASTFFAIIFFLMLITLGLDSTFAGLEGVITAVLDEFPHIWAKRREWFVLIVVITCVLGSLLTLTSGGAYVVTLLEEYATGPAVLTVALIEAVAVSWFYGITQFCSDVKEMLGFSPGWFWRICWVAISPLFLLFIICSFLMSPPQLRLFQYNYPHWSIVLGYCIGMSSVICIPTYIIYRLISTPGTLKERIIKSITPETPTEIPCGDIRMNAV
- Procedure Text: Serotonin uptake inhibition (5HT uptake) in synaptosomes
- Assay type: biochemical
- Experimental Parameters: rat brain synaptosomes
# inhibition at 10 µM listing for each entry below
Write down the numeric answer in % and omit the unit.

Past entries and their recorded results:
Cc1cc(C(=O)N2CCC3(CC2)CC(C(=O)NCc2ccncc2)=NO3)ccc1Br : 64
O=C(NCC1CC1)C1=NOC2(CCN(C(=O)c3cccc(Cl)c3Cl)CC2)C1 : 52
CCOC(=O)CCNC(=O)C1=NOC2(CCN(C(=O)c3cc(F)cc(F)c3)CC2)C1 : 46
O=C(Nc1ccc2ccccc2c1)C1=NOC2(CCN(S(=O)(=O)c3ccc(OC(F)(F)F)cc3)CC2)C1 : 43
CCOC(=O)N1CCC(NC(=O)C2=NOC3(CCN(C(=O)c4ccc(F)cc4F)CC3)C2)CC1 : 52
CN1CCCC1CCNC(=O)C1=NOC2(CCN(S(=O)(=O)c3ccc(Cl)s3)CC2)C1 (stereo not shown) : 72

Given CN(C)S(=O)(=O)N1CCC2(CC1)CC(C(=O)NCc1ccc(C(F)(F)F)c(F)c1)=NO2 , respond with its inhibition at 10 µM. 42

Given COCCOCC(=O)N1CCC2(CC1)CC(C(=O)NCc1ccccc1)=NO2 , respond with its inhibition at 10 µM. 40

Given O=C(C1=NOC2(CCN(S(=O)(=O)Cc3ccccc3)CC2)C1)N1CCN(c2ccc(Cl)cc2)CC1 , respond with its inhibition at 10 µM. 40

Given Cc1cnc(C(=O)N2CCN(C(=O)C3=NOC4(CCN(S(=O)(=O)c5ccc(F)cc5)CC4)C3)CC2)cn1 , respond with its inhibition at 10 µM. 42

Given Cc1ccc(S(=O)(=O)N2CCC3(CC2)CC(C(=O)N2CCN(C(=O)Cc4ccccc4)CC2)=NO3)cc1 , respond with its inhibition at 10 µM. 51

Given CCc1ccc(C(=O)N2CCC3(CC2)CC(C(=O)NCc2cccs2)=NO3)cc1 , respond with its inhibition at 10 µM. 60

Given Cc1ccc(S(=O)(=O)NC(Cc2ccccc2)C(=O)N2CCC3(CC2)CC(C(=O)NCCC#N)=NO3)cc1 (stereo not shown) , respond with its inhibition at 10 µM. 70

Given O=C(C1=NOC2(CCN(S(=O)(=O)c3ccc(Cl)s3)CC2)C1)N1CCN(c2ccc(F)cc2)CC1 , respond with its inhibition at 10 µM. 45

Given COc1ccc(S(=O)(=O)N2CCC3(CC2)CC(C(=O)NC(C)Cc2ccc(Cl)cc2)=NO3)cc1 (stereo not shown) , respond with its inhibition at 10 µM. 54

Given O=C(NC1CCCC1)C1=NOC2(CCN(C(=O)c3ccc([N+](=O)[O-])cc3Cl)CC2)C1 , respond with its inhibition at 10 µM. 59

Given CCCC(=O)N1CCC2(CC1)CC(C(=O)Nc1ccccc1)=NO2 , respond with its inhibition at 10 µM. 41

Given Cc1ccc(F)cc1S(=O)(=O)N1CCC2(CC1)CC(C(=O)NCCN(C)C)=NO2 , respond with its inhibition at 10 µM. 70

###

- Tested On: 5HT-uptake (Rattus norvegicus)
- Construct: synaptosomes from rat brain regions were freshly isolated; from tissue; host or cells: P2 synaptosome fraction from rat brain regions
- Procedure Text: Serotonin uptake inhibition (5HT uptake) in synaptosomes
- Format: biochemical
- Experimental Parameters: rat brain synaptosomes
Measurement Kind: 5HT-uptake, 10 μM, % inhibition (%)
Write down the numeric answer in % and omit the unit.

O=C(C1=NOC2(CCN(S(=O)(=O)Cc3ccccc3)CC2)C1)N1CCN(CCCc2ccccc2)CC1 [Example 69] : 63
CCOC(=O)CCNC(=O)C1=NOC2(CCN(S(=O)(=O)c3cc([N+](=O)[O-])ccc3C)CC2)C1 [Example 95] : 54
O=C(NCCc1ccc(Cl)c(Cl)c1)C1=NOC2(CCN(S(=O)(=O)c3ccc(OC(F)(F)F)cc3)CC2)C1 [Example 165] : 41
Cc1ccc(S(=O)(=O)N2CCC3(CC2)CC(C(=O)NCCc2ccc(Cl)c(Cl)c2)=NO3)cc1 [Example 9] : 75
CN(CCc1c[nH]c2ccccc12)C(=O)C1=NOC2(CCN(S(=O)(=O)c3ccc(OC(F)(F)F)cc3)CC2)C1 [Example 16] : 60

Given CCOC(=O)CCNC(=O)C1=NOC2(CCN(C(=O)c3c(Cl)ccc(C)c3F)CC2)C1 [Example 148] , respond with its 5HT-uptake, 10 μM, % inhibition. 47

Given CCSCCNC(=O)C1=NOC2(CCN(C(=O)c3ccc(Br)cc3)CC2)C1 [Example 154] , respond with its 5HT-uptake, 10 μM, % inhibition. 48
